Test: collision cross section of unmodified peptide (TIMS, N2, iRT-aligned); higher = larger / more extended gas-phase ion
Details: charge state: 2
property.measured: collision cross section (Å²)
API: value field is a number in Å²; no unit string.

Prompt: Look up collision cross section for this substance: `SPSDSGYSYETIGKTTK`
Response: 441.25

Prompt: Look up collision cross section for this substance: `LGPNDQYK`
Response: 325.88

Prompt: Look up collision cross section for this substance: `DAEAAEATAEGALKAEK`
Response: 458.36

Prompt: Look up collision cross section for this substance: `EEKPAVTAAPK`
Response: 359.42

Prompt: Look up collision cross section for this substance: `YIGTGHADTTK`
Response: 357.91

Prompt: Look up collision cross section for this substance: `FHYQDQEFLK`
Response: 406.29

Prompt: Look up collision cross section for this substance: `ASPPLFQSR`
Response: 339.74

Prompt: Look up collision cross section for this substance: `GERGVPGER`
Response: 324.16

Prompt: Look up collision cross section for this substance: `IISSIEQKEENK`
Response: 409.72

Prompt: Look up collision cross section for this substance: `GRGGAESHTFK`
Response: 353.4

Prompt: Look up collision cross section for this substance: `VQGGALEDSQLVAGVAFKK`
Response: 499.26

Prompt: Look up collision cross section for this substance: `TVTNAVVTVPAYFNDSQR`
Response: 471.11

Prompt: Look up collision cross section for this substance: `FEGAIYR`
Response: 317.08

Prompt: Look up collision cross section for this substance: `SYSVGASGSSSR`
Response: 351.41

Prompt: Look up collision cross section for this substance: `FGTINIVHPKLGSYTK`
Response: 468.97

Prompt: Look up collision cross section for this substance: `SEGFDTYR`
Response: 330.1

Prompt: Look up collision cross section for this substance: `FVDSKVGEFSGANK`
Response: 415.64

Prompt: Look up collision cross section for this substance: `YSSSSIPEPFGSRGSPR`
Response: 433.42

Prompt: Look up collision cross section for this substance: `QGNAVTLGDYYQGR`
Response: 415.78

Prompt: Look up collision cross section for this substance: `LYLPVQNK`
Response: 336.72

Prompt: Look up collision cross section for this substance: `SGGGYGGDRGGGYGGDR`
Response: 393.08

Prompt: Look up collision cross section for this substance: `SSGPGGQNVNKVNSK`
Response: 401.42

Prompt: Look up collision cross section for this substance: `AQSYAQQLGR`
Response: 352.59

Prompt: Look up collision cross section for this substance: `LSFGLEDEPLETATK`
Response: 426.44

Prompt: Look up collision cross section for this substance: `GQQGEPGPK`
Response: 313.75

Prompt: Look up collision cross section for this substance: `IVSGKDYNVTANSK`
Response: 405.96

Prompt: Look up collision cross section for this substance: `LGHYATQLQK`
Response: 363.47

Prompt: Look up collision cross section for this substance: `SDSGKPYYYNSQTK`
Response: 416.14

Prompt: Look up collision cross section for this substance: `VEPIHAVVLPRGK`
Response: 414.74

###

Assay: collision cross section of modified peptide (TIMS, N2, iRT-aligned); higher = larger / more extended gas-phase ion
Conditions: charge state: 2; modification: Butyryl
Binary call on collision cross section: Condition met from 400 Å² upward, Condition not met beneath that.

Prompt: Item LQEKVESAQSEQK [_LQEK(Butyryl)VESAQSEQK_] with collision cross section of 400 Å² or above?
Response: Condition met

Prompt: Item PANEKATDDYHYEK [_PANEK(Butyryl)ATDDYHYEK_] with collision cross section of 400 Å² or above?
Response: Condition met

Prompt: Item VGTASVLQPVKK [_VGTASVLQPVK(Butyryl)K_] with collision cross section of 400 Å² or above?
Response: Condition not met

Prompt: Item TLDEILQEKK [_TLDEILQEK(Butyryl)K_] with collision cross section of 400 Å² or above?
Response: Condition not met

Prompt: Item GEVQVSDKER [_GEVQVSDK(Butyryl)ER_] with collision cross section of 400 Å² or above?
Response: Condition not met

Prompt: Item GFALVGVGSEASSKK [_GFALVGVGSEASSK(Butyryl)K_] with collision cross section of 400 Å² or above?
Response: Condition met

Prompt: Item DTPTSAGPNSFNKGK [_DTPTSAGPNSFNK(Butyryl)GK_] with collision cross section of 400 Å² or above?
Response: Condition met

Prompt: Item GTVPDDAVEALADSLGKK [_GTVPDDAVEALADSLGK(Butyryl)K_] with collision cross section of 400 Å² or above?
Response: Condition met

###

Assay: collision cross section of modified peptide (TIMS, N2, iRT-aligned); higher = larger / more extended gas-phase ion
Conditions: charge state: 2; modification: Citrullination (R)
Please provide measured collision cross section for the entries that follow.
API: value field is a number in Å²; no unit string.

Prompt: Look up collision cross section for this sequence: GATVTRGVPPPPTVR [_GATVTR(Citrullination (R))GVPPPPTVR_]
Response: 398.42

Prompt: Look up collision cross section for this sequence: PRTPTAPAVNLAGAR [_PR(Citrullination (R))TPTAPAVNLAGAR_]
Response: 411.43

Prompt: Look up collision cross section for this sequence: SGGGYGGDRGGGYGGDR [_SGGGYGGDR(Citrullination (R))GGGYGGDR_]
Response: 393.58

Prompt: Look up collision cross section for this sequence: SRGAIISQYYNR [_SR(Citrullination (R))GAIISQYYNR_]
Response: 408.9

###

Test: collision cross section of modified peptide (TIMS, N2, iRT-aligned); higher = larger / more extended gas-phase ion
Settings: charge state: 3; modification: Butyryl
property.measured: collision cross section (Å²)
API: value field is a number in Å²; no unit string.

Prompt: Look up collision cross section for this sequence: LGNDFHTNKR [_LGNDFHTNK(Butyryl)R_]
Response: 446.3

Prompt: Look up collision cross section for this sequence: PSVGSQSNQAGQGKR [_PSVGSQSNQAGQGK(Butyryl)R_]
Response: 475.14

Prompt: Look up collision cross section for this sequence: IISSIEQKEENK [_IISSIEQK(Butyryl)EENK_]
Response: 479

Prompt: Look up collision cross section for this sequence: LLFSNTAAQKLR [_LLFSNTAAQK(Butyryl)LR_]
Response: 483.12

Prompt: Look up collision cross section for this sequence: LLIVSTTPYSEKDTK [_LLIVSTTPYSEK(Butyryl)DTK_]
Response: 488.4

Prompt: Look up collision cross section for this sequence: KYEEIDNAPEER [_K(Butyryl)YEEIDNAPEER_]
Response: 492.73

Prompt: Look up collision cross section for this sequence: SITHSTVGSKGEK [_SITHSTVGSK(Butyryl)GEK_]
Response: 440.88

Prompt: Look up collision cross section for this sequence: VYIASSSGSTAIKK [_VYIASSSGSTAIK(Butyryl)K_]
Response: 508.32

Prompt: Look up collision cross section for this sequence: LDHLAEKFR [_LDHLAEK(Butyryl)FR_]
Response: 440.5

Prompt: Look up collision cross section for this sequence: FLQEFYQDDELGKK [_FLQEFYQDDELGK(Butyryl)K_]
Response: 506.1

Prompt: Look up collision cross section for this sequence: DVNAAIAAIKTK [_DVNAAIAAIK(Butyryl)TK_]
Response: 469.41

Prompt: Look up collision cross section for this sequence: IVFSGNLFQHQEDSKK [_IVFSGNLFQHQEDSK(Butyryl)K_]
Response: 542.63

Prompt: Look up collision cross section for this sequence: GTISAPGKVVTAAAQAK [_GTISAPGK(Butyryl)VVTAAAQAK_]
Response: 519.35

Prompt: Look up collision cross section for this sequence: VNIGQGSHPQKVK [_VNIGQGSHPQK(Butyryl)VK_]
Response: 485.89

Prompt: Look up collision cross section for this sequence: LGVATVAKGVCGACK [_LGVATVAK(Butyryl)GVCGACK_]
Response: 491.64

Prompt: Look up collision cross section for this sequence: VLTANSNPSSPSAAKR [_VLTANSNPSSPSAAK(Butyryl)R_]
Response: 531.28

Prompt: Look up collision cross section for this sequence: VTLEVGKVIQQGR [_VTLEVGK(Butyryl)VIQQGR_]
Response: 483.04

###

Please provide measured collision cross section for the entries that follow.
Test: collision cross section of modified peptide (TIMS, N2, iRT-aligned); higher = larger / more extended gas-phase ion
Conditions: charge state: 2; modification: Dimethyl (K)
API: value field is a number in Å²; no unit string.

Prompt: Look up collision cross section for this sequence: LGNDFHTNKR [_LGNDFHTNK(Dimethyl (K))R_]
Response: 366.02

Prompt: Look up collision cross section for this sequence: LDHLAEKFR [_LDHLAEK(Dimethyl (K))FR_]
Response: 368.82

Prompt: Look up collision cross section for this sequence: VETTVTSLKTK [_VETTVTSLK(Dimethyl (K))TK_]
Response: 385.99

Prompt: Look up collision cross section for this sequence: VGEFSGANKEK [_VGEFSGANK(Dimethyl (K))EK_]
Response: 376.33

Prompt: Look up collision cross section for this sequence: TLDEILQEKK [_TLDEILQEK(Dimethyl (K))K_]
Response: 379.42

Prompt: Look up collision cross section for this sequence: LLFSNTAAQKLR [_LLFSNTAAQK(Dimethyl (K))LR_]
Response: 419.08

Prompt: Look up collision cross section for this sequence: IGNSYFKEEK [_IGNSYFK(Dimethyl (K))EEK_]
Response: 384.15

Prompt: Look up collision cross section for this sequence: IISSIEQKEENK [_IISSIEQK(Dimethyl (K))EENK_]
Response: 410.65

Prompt: Look up collision cross section for this sequence: TVSKVDDFLANEAK [_TVSK(Dimethyl (K))VDDFLANEAK_]
Response: 415.63

Prompt: Look up collision cross section for this sequence: VGTASVLQPVKK [_VGTASVLQPVK(Dimethyl (K))K_]
Response: 391.72

Prompt: Look up collision cross section for this sequence: LEKTIDDLEEK [_LEK(Dimethyl (K))TIDDLEEK_]
Response: 401.15

Source: the supplement of paper PMC10598134
